# tested-target: p300 HAT domain (residues 1287-1666) (Homo sapiens (Human), UniProt Q09472)
# Sequence (Q09472 1287-1666): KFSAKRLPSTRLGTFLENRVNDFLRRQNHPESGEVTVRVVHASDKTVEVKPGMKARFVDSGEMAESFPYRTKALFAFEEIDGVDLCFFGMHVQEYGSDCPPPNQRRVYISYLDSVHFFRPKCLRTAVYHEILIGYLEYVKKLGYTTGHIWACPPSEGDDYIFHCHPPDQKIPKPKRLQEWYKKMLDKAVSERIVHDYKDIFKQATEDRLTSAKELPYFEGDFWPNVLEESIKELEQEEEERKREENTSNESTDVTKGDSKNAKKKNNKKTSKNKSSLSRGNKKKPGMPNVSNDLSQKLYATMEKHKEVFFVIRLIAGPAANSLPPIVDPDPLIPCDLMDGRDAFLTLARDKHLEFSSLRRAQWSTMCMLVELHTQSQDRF
# method-description: p300 HAT SPA assay (scintillation proximity assay, acetylation of biotinylated H3(1-21) peptide)
# Format: biochemical
# stated-conditions: p300 HAT domain; average of at least 2 replicate titrations; read-out: P300 HAT SPA IC50
assay-readout: IC50 (nM)

Cn1cc(-c2ccc3c(C(=O)C(NCCc4ccc(S(N)(=O)=O)cc4)c4ccccc4)c[nH]c3c2)cn1 (single isomer, unassigned) [66 Isomer 2]    281

a = COCCNC(=O)c1ccc2c(C(=O)C(NCCc3ccc(Cl)cc3Cl)c3ccccc3)c[nH]c2c1 (single isomer, unassigned) [154 Isomer 1]
b = O=C(c1c[nH]c2cc(-n3cccn3)ccc12)C(NCCc1ccc(F)cc1)c1ccccc1 (single isomer, unassigned) [118 Isomer 2]
For the two items a and b , which reports the higher IC50 value? When you have decided, please share the label of that item.
b
(b: 2650 nM, a: 325 nM)

====

# tested-target: p300 HAT domain (residues 1287-1666) (Homo sapiens (Human), UniProt Q09472)
# method-description: p300 HAT SPA assay (scintillation proximity assay, acetylation of biotinylated H3(1-21) peptide)
# Format: biochemical
# stated-conditions: p300 HAT domain; average of at least 2 replicate titrations; read-out: P300 HAT SPA IC50
pIC50: −log10 of the molar value.
assay-readout: pIC50

Cn1cc(-c2ccc3c(C(=O)C(NCCc4ccc(C(=O)O)cc4)c4ccccc4)c[nH]c3c2)cn1 (single isomer, unassigned) [138 Isomer 2]    5.37
CC(CNC(C(=O)c1cnn2cc(-c3cnn(C)c3)ccc12)c1ccccc1)c1ccc(C#N)cc1 (single isomer, unassigned) [102 Isomer 3]    6.67
N#Cc1ccc(CCNC(C(=O)c2c[nH]c3cc(C(=O)NCCN4CCCC4)ccc23)c2ccccc2)cc1 (single isomer, unassigned) [176 Isomer 2]    5.95
CC(Cc1ccc(Cl)cc1)NC(C(=O)c1c[nH]c2cc(-c3cnn(C)c3)ccc12)c1ccccc1 (single isomer, unassigned) [92 Isomer 4]    5.65
COc1cccc(CCNC(C(=O)c2c[nH]c3ccccc23)c2ccccc2)c1 (single isomer, unassigned) [7 Isomer 1]    5.13

P = N#Cc1ccc(CCNC(C(=O)c2c[nH]c3cc(C(=O)NC4CN(CC(F)(F)F)C4)ccc23)c2ccccc2)cc1 (single isomer, unassigned) [162 Isomer 2]
Q = CNC(=O)CCc1ccc2c(C(=O)C(NCCc3ccc(F)cc3)c3ccccc3)c[nH]c2c1 (single isomer, unassigned) [158 Isomer 1]
R = Cc1ccc(CCNC(C(=O)c2c[nH]c3ccccc23)c2ccccc2)cc1 (single isomer, unassigned) [38 Isomer 2]
S = CN1CCC(Oc2ccc3c(C(=O)C(NCCc4ccc(C#N)cc4)c4ccccc4)c[nH]c3c2)CC1 (single isomer, unassigned) [126 Isomer 1]
Please give the order of these molecules when sorted by pIC50, largest value leading. Could you list the labels in the order requested?
P, R, Q, S

====

# tested-target: p300 HAT domain (residues 1287-1666) (Homo sapiens (Human), UniProt Q09472)
# method-description: p300 HAT SPA assay (scintillation proximity assay, acetylation of biotinylated H3(1-21) peptide)
# Format: biochemical
# stated-conditions: p300 HAT domain; average of at least 2 replicate titrations; read-out: P300 HAT SPA IC50
assay-readout: IC50 (µM)

a = CN(C)CCNC(=O)c1ccc2c(C(=O)C(NCCc3ccc(Cl)cc3Cl)c3ccccc3)c[nH]c2c1 (single isomer, unassigned) [153 Isomer 2]
b = CN(C)CCNC(=O)c1cccc2c(C(=O)C(NCCc3ccc(Cl)cc3Cl)c3ccccc3)c[nH]c12 (single isomer, unassigned) [149 Isomer 1]
c = CC(CNC(C(=O)c1c[nH]c2cc(-c3cnn(C)c3)ccc12)c1ccccc1)c1ccc(Cl)cc1 (single isomer, unassigned) [91 Isomer 4]
Method: rank(items above, key=IC50, ascending=True) Could you list the labels in the order requested?
a, c, b

====

# tested-target: p300 HAT domain (residues 1287-1666) (Homo sapiens (Human))
# method-description: p300 HAT SPA assay (scintillation proximity assay, acetylation of biotinylated H3(1-21) peptide)
# Type: biochemical
# stated-conditions: p300 HAT domain; average of at least 2 replicate titrations; read-out: P300 HAT SPA IC50
assay-readout: IC50 (µM)

CCn1cc(-c2ccc3c(C(=O)C(NCCc4ccc(Cl)cc4)c4ccccc4)c[nH]c3c2)cn1 (single isomer, unassigned) [86 Isomer 1]    28.1

A = Cn1cc(CCNC(C(=O)c2c[nH]c3ccccc23)c2ccccc2)cn1 (single isomer, unassigned) [35 Isomer 1]
B = O=C(c1c[nH]c2ccccc12)[C@@H](NCCc1ccc(-c2nnc[nH]2)cc1)c1ccccc1 (single isomer, unassigned) [186 Isomer 2]
C = C[C@@H](NC(=O)c1ccc2c(C(=O)C(NCCc3ccc(C#N)cc3)c3ccccc3)c[nH]c2c1)C(F)(F)F (single isomer, unassigned) [170 Isomer 1]
Please give the order of these compounds when sorted by IC50, largest value leading. Could you list the labels in the order requested?
A, B, C
(A: 39.8 µM, B: 3.54 µM, C: 0.296 µM)

====

Hi! I'm sharing some pIC50 results obtained with full length p300 (Homo sapiens (Human)).
Sequence (Q09472 whole entry): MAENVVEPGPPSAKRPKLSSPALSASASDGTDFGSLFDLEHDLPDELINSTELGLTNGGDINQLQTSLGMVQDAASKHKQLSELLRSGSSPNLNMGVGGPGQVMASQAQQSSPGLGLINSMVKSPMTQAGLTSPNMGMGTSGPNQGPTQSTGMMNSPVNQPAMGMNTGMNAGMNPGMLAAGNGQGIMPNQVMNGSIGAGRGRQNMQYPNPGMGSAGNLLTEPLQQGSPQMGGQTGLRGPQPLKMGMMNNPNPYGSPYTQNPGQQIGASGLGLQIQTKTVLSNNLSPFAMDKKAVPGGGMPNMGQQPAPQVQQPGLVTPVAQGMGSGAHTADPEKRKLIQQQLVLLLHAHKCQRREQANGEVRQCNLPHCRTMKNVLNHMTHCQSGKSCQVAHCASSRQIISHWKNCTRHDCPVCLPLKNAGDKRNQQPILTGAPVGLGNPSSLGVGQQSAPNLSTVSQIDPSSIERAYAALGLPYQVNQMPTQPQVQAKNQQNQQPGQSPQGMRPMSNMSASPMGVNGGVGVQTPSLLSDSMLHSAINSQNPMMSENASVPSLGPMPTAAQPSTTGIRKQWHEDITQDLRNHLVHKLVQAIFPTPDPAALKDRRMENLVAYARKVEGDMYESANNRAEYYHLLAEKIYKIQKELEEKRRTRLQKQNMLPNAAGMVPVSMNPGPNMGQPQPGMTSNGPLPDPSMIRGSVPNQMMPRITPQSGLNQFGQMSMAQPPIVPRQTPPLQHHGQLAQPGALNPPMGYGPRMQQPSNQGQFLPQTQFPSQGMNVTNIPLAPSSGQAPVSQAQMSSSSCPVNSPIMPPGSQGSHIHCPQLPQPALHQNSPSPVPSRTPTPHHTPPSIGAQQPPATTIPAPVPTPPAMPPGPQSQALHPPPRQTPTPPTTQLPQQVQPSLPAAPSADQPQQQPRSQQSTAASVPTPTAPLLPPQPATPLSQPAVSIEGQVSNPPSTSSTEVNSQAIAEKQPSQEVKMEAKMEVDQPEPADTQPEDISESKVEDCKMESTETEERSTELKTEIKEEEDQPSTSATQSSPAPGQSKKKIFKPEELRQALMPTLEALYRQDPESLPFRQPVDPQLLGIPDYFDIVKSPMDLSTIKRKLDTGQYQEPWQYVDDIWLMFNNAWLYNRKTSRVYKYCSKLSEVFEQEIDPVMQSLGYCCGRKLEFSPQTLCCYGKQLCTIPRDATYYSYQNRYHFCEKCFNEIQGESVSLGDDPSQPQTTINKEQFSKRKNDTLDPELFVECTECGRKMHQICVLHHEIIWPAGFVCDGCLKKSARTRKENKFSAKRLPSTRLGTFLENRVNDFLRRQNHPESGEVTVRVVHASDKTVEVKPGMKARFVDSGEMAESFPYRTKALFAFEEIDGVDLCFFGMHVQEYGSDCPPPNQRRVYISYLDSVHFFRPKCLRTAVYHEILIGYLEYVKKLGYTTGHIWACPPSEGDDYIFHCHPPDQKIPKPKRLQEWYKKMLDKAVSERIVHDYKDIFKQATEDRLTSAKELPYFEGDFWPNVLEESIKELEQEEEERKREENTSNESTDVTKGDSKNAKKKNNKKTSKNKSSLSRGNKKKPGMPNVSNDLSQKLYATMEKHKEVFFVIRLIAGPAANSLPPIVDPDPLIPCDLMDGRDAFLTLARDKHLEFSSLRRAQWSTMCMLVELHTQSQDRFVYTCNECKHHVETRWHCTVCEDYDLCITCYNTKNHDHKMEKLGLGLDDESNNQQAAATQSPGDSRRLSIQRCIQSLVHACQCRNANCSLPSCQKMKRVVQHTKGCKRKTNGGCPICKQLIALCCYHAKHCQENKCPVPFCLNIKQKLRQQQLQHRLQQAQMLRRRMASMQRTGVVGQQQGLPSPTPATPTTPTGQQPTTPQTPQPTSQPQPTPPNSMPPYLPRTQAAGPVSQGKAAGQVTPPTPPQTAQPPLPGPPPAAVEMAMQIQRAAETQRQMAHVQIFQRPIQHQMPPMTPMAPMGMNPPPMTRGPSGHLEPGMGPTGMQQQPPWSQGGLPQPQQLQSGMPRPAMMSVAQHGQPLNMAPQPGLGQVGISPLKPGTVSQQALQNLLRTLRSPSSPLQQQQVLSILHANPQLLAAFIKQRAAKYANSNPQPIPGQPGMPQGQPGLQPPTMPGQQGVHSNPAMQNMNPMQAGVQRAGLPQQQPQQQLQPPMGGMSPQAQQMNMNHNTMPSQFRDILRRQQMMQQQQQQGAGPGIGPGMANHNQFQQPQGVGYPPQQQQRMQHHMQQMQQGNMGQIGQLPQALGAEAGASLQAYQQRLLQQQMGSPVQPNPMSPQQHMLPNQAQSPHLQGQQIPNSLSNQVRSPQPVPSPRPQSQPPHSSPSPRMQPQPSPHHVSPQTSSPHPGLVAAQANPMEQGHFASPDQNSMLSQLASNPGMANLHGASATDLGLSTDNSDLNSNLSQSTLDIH
pIC50: −log10 of the molar value.
assay-readout: pIC50

Examples with answers:
COc1ccc(CCNC(C(=O)c2c[nH]c3c(CCC(=O)N(C)C)cccc23)c2ccccc2)cc1 (single isomer, unassigned) [29 Isomer 1]    7.04
NS(=O)(=O)c1ccc(CCNC(C(=O)c2c[nH]c3cc(Cl)ccc23)c2ccccc2)cc1 (single isomer, unassigned) [13 Isomer 2]    6.84
O=C(c1c[nH]c2ccccc12)C(NCCc1ccc(F)cc1)c1ccccc1 (single isomer, unassigned) [22 Isomer 2]    7.68
COCCNC(=O)c1ccc2c(C(=O)C(NCCc3ccc(Cl)cc3Cl)c3ccccc3)c[nH]c2c1 (single isomer, unassigned) [154 Isomer 2]    8.05
CCNC(=O)c1ccc2c(C(=O)C(NCC(C)c3ccc(C#N)cc3)c3ccccc3)c[nH]c2c1 (single isomer, unassigned) [75 Isomer 4]    9.15

A = COc1ccc(CCN[C@H](C(=O)c2c[nH]c3c(C(C)C)cccc23)c2ccccc2)cc1 (single isomer, unassigned) [145 Isomer 1]
B = O=C(c1c[nH]c2ccccc12)C(NCCc1ccc(Cl)cc1)c1ccncc1 (racemic) [44 Racemic]
C = COc1cccc(CCNC(C(=O)c2c[nH]c3ccccc23)c2ccccc2)c1 (single isomer, unassigned) [7 Isomer 2]
D = CN(C)C(=O)Cc1ccc2c(C(=O)C(NCCc3ccc(C#N)cc3)c3ccccc3)c[nH]c2c1 (single isomer, unassigned) [63 Isomer 2]
Please give the order of these molecules when sorted by pIC50, largest value leading. Could you list the labels in the order requested?
D, B, C, A
(D: 7.34, B: 6.92, C: 6.57, A: 6.23)

1 = O=C(c1c[nH]c2cc(-n3cccn3)ccc12)C(NCCc1ccc(F)cc1)c1ccccc1 (single isomer, unassigned) [118 Isomer 2]
2 = COc1ccc2c(C(=O)C(NCCc3ccc(Cl)cc3)c3ccccc3)c[nH]c2c1 (single isomer, unassigned) [60 Isomer 2]
Which value of pIC50 is smaller, the one for 1 or the one for 2 ? When you have decided, please share the label of that item.
2
(2: 6.75, 1: 7.09)

1 = O=C(c1c[nH]c2cc(-c3ccncc3)ccc12)C(NCCc1ccc(F)cc1)c1ccccc1 (single isomer, unassigned) [82 Isomer 2]
2 = O=C(c1c[nH]c2ccccc12)C(NCCc1ccc(Cl)cc1)c1ccccn1 (racemic) [42 Racemic]
3 = O=C(c1n[nH]c2ccccc12)C(NCCc1ccc(Cl)cc1)c1ccccc1 (single isomer, unassigned) [47 Isomer 2]
4 = NS(=O)(=O)c1ccc(CCNC(C(=O)c2c[nH]c3cnccc23)c2ccccc2)cc1 (single isomer, unassigned) [32 Isomer 2]
5 = CNC(=O)c1ccc2c(C(=O)C(NCCc3ccc(C#N)cc3)c3ccccc3)c[nH]c2c1 (single isomer, unassigned) [156 Isomer 1]
Ascending by pIC50, please. Could you list the labels in the order requested?
3, 4, 2, 5, 1

A = O=C(O)CCc1ccc2c(C(=O)C(NCCc3ccc(F)cc3)c3ccccc3)c[nH]c2c1 (single isomer, unassigned) [159 Isomer 2]
B = CN(C)C(=O)c1ccc(CCNC(C(=O)c2c[nH]c3ccccc23)c2ccccc2)cc1 (single isomer, unassigned) [135 Isomer 2]
C = CCNC(=O)c1ccc2c(C(=O)C(NCC(C)c3ccc(C#N)cc3)c3ccccc3)cnn2c1 (single isomer, unassigned) [69 Isomer 4]
D = CN(C)CCNC(=O)c1ccc2c(C(=O)C(NCCc3ccc(Cl)cc3Cl)c3ccccc3)c[nH]c2c1 (single isomer, unassigned) [153 Isomer 2]
Ascending by pIC50, please. Could you list the labels in the order requested?
B, A, C, D
(B: 6.09, A: 6.56, C: 7.75, D: 8.24)

a = N#Cc1ccc(CCNC(C(=O)c2c[nH]c3cc(C(=O)NCCN4CCCC4=O)ccc23)c2ccccc2)cc1 (single isomer, unassigned) [164 Isomer 1]
b = CN(C)c1ccc(CCNC(C(=O)c2c[nH]c3ccccc23)c2ccccc2)cc1 (single isomer, unassigned) [39 Isomer 2]
For the two items a and b , which reports the higher pIC50 value? When you have decided, please share the label of that item.
b
(b: 7.56, a: 6.72)

P = COCCNC(=O)c1cccc2c(C(=O)C(NCCc3ccc(Cl)cc3Cl)c3ccccc3)c[nH]c12 (single isomer, unassigned) [150 Isomer 1]
Q = O=C(c1c[nH]c2ccccc12)C(NCCc1cccnc1)c1ccccc1 (single isomer, unassigned) [10 Isomer 2]
For the two items P and Q , which reports the higher pIC50 value? When you have decided, please share the label of that item.
P
(P: 6.41, Q: 6.15)
